System: Hepatotoxicity
ASSAY OVERVIEW: FDA HLAED, alkaline phosphatase increase
CONDITION SUMMARY: human
ASSAY METRIC: Alkaline Phosphatase Increase - Number of Reports

COMPOUND: C[C@H]1C[C@H]2[C@@H]3CCC4=CC(=O)C=C[C@]4(C)[C@@]3(Cl)[C@@H](O)C[C@]2(C)[C@@]1(O)C(=O)CO
READING: < 4
--
COMPOUND: COC(=O)C1=C(C)NC(C)=C(C(=O)OCC(C)C)C1c1ccccc1[N+](=O)[O-] (stereo not drawn)
READING: < 4
--
COMPOUND: COCC1=C(C(=O)OC(C)OC(=O)OC(C)C)N2C(=O)[C@@H](NC(=O)/C(=N\OC)c3csc(N)n3)[C@H]2SC1 (stereo partly drawn)
READING: >= 4
--
COMPOUND: C[C@H]1COc2c(N3CCN(C)CC3)c(F)cc3c(=O)c(C(=O)O)cn1c23.C[C@H]1COc2c(N3CCN(C)CC3)c(F)cc3c(=O)c(C(=O)O)cn1c23.O
READING: < 4
--
COMPOUND: C[N+](C)(C)CCO.Cn1c(=O)c2[n-]cnc2n(C)c1=O
READING: < 4

Enquiry: Name the value of Alkaline Phosphatase Increase - Number of Reports reported for O=C(O)[C@@H](S)[C@@H](S)C(=O)O when tested on Hepatotoxicity.
Return: >= 4

Enquiry: Print Hepatotoxicity Alkaline Phosphatase Increase - Number of Reports for CCCCC(=O)O[C@H]1CC[C@H]2[C@@H]3CCc4cc(O)ccc4[C@H]3CC[C@]12C [ESTRADIOL VALERATE] .
Return: >= 4

Enquiry: Provide Alkaline Phosphatase Increase - Number of Reports, tested on Hepatotoxicity, for O=C(O)CCc1nc(-c2ccccc2)c(-c2ccccc2)o1 .
Return: < 4

* * *

Test system: Hepatotoxicity
ASSAY OVERVIEW: FDA HLAED, gamma-glutamyl transferase (GGT) increase
CONDITION SUMMARY: human
ASSAY METRIC: GGT Increase - Index Value

Enquiry: Provide GGT Increase - Index Value value for the following compound: CC(C(=O)O)c1ccc(C(=O)c2cccs2)cc1 (stereo not given) [SUPROFEN]
Return: 0

Enquiry: Give the measured GGT Increase - Index Value for COc1ccc(-c2ccc3cc(C(=O)O)ccc3c2)cc1C12CC3CC(CC(C3)C1)C2
Return: 0

Enquiry: Entry Cc1ccc(-c2nc3ccc(C)cn3c2CC(=O)N(C)C)cc1 [ZOLPIDEM] needs its GGT Increase - Index Value filled in; supply it.
Return: 3

Enquiry: Fill in reported GGT Increase - Index Value for this entry: Nc1cc(Cl)c(N=C2NCCN2)c(Cl)c1 [APRACLONIDINE]
Return: 0

Enquiry: Identify GGT Increase - Index Value associated with the compound COCC1=C(C(=O)O)N2C(=O)[C@@H](NC(=O)/C(=N\OC)c3csc(N)n3)[C@H]2SC1 [CEFPODOXIME]
Return: 0.5

Enquiry: Give recorded GGT Increase - Index Value. CCN(CC)CCNC(=O)c1cc(Cl)c(N)cc1OC [METOCLOPRAMIDE]
Return: 0

Enquiry: Could you please provide reported GGT Increase - Index Value for CCOC(=O)[C@H](CCc1ccccc1)N[C@@H](C)C(=O)N1CCC[C@H]1C(=O)O ? Thanks!
Return: 0.2

Enquiry: Look up and report measured GGT Increase - Index Value for this entry: CC(C)(C)NC[C@H](O)COc1cccc2c1CCCC2=O [LEVOBUNOLOL]
Return: 0

Enquiry: Give the value of GGT Increase - Index Value reported for the following: Cc1cn([C@H]2C=C[C@@H](CO)O2)c(=O)[nH]c1=O [STAVUDINE]
Return: 3.6

Enquiry: Using known records, supply GGT Increase - Index Value for C=CCN1C[C@H](C(=O)N(CCCN(C)C)C(=O)NCC)C[C@@H]2c3cccc4[nH]cc(c34)C[C@H]21 [CABERGOLINE]
Return: 0

Enquiry: Name the recorded GGT Increase - Index Value of the item Nc1c2c(nc3ccccc13)CCCC2 [TACRINE] in your answer.
Return: 17.4

Enquiry: Entry CC(C)(C)NC(=O)[C@@H]1CN(Cc2cccnc2)CCN1C[C@@H](O)C[C@@H](Cc1ccccc1)C(=O)N[C@H]1c2ccccc2C[C@H]1O.O needs its GGT Increase - Index Value filled in; supply it.
Return: 13.7

Enquiry: Give the reported value of GGT Increase - Index Value for this record: CN(C)CC/C=C1/c2ccccc2COc2ccc(CC(=O)O)cc21 [OLOPATADINE]
Return: 0

Enquiry: Specify GGT Increase - Index Value for CCOC(=O)OC(C)OC(=O)[C@@H]1N2C(=O)[C@@H](NC(=O)[C@H](N)c3ccccc3)[C@H]2SC1(C)C (stereo not given in full) [BACAMPICILLIN] and stop.
Return: 0

Enquiry: Return value of GGT Increase - Index Value for input CO/N=C(\C(=O)N[C@@H]1C(=O)N2C(C(=O)[O-])=C(C[N+]3(C)CCCC3)CS[C@H]12)c1csc(N)n1 , no commentary.
Return: 27.4

Enquiry: Please give measured GGT Increase - Index Value of the following entry: CC(C)n1c(/C=C/C(O)CC(O)CC(=O)O)c(-c2ccc(F)cc2)c2ccccc21 (stereo not given) [FLUVASTATIN]
Return: 0.7

Enquiry: Using the record for CCN1CCN(C(=O)N[C@@H](C(=O)N[C@@H]2C(=O)N3[C@@H]2SC(C)(C)[C@@H]3C(=O)O)c2ccccc2)C(=O)C1=O [PIPERACILLIN] , state its measured GGT Increase - Index Value.
Return: 0

Enquiry: Please look at this compound and report its GGT Increase - Index Value: Nc1ccn([C@@H]2O[C@H](CO)[C@@H](O)C2(F)F)c(=O)n1 [GEMCITABINE]
Return: 1.4

Enquiry: Report measured GGT Increase - Index Value; entry is O=C1CN=C(c2ccccc2)c2cc(Cl)ccc2N1CC1CC1 [PRAZEPAM]
Return: 0

Enquiry: # return recorded GGT Increase - Index Value for entry Clc1ccc(C(Cn2ccnc2)OCc2ccsc2Cl)c(Cl)c1 (stereo not given) [TIOCONAZOLE]
Return: 0

Enquiry: Give me measured GGT Increase - Index Value, please, for this compound: CCc1cccc2c3c([nH]c12)C(CC)(CC(=O)O)OCC3 (stereo not given) [ETODOLAC]
Return: 0.8

Enquiry: Could you please provide reported GGT Increase - Index Value for Fc1ccc([C@@H]2CCNC[C@H]2COc2ccc3c(c2)OCO3)cc1 [PAROXETINE] ? Thanks!
Return: 0.5

Enquiry: Provide only the value of recorded GGT Increase - Index Value for CCCCc1oc2ccccc2c1C(=O)c1cc(I)c(OCCN(CC)CC)c(I)c1 [AMIODARONE]
Return: 0

Enquiry: Using known records, supply GGT Increase - Index Value for O=c1[nH]cnc2c1ncn2[C@H]1CC[C@@H](CO)O1 [DIDANOSINE]
Return: 1.5

Enquiry: Hello, please tell me recorded GGT Increase - Index Value for this one: C=C1c2c(Cl)ccc(O)c2C(=O)C2=C(O)[C@]3(O)C(=O)C(C(N)=O)=C(O)[C@@H](N(C)C)[C@@H]3[C@@H](O)[C@H]12 [MECLOCYCLINE]
Return: 0

Enquiry: Look up GGT Increase - Index Value of C[C@H](CS)C(=O)N1CCC[C@H]1C(=O)O [CAPTOPRIL] and report it.
Return: 0

Enquiry: Give recorded GGT Increase - Index Value. CN(C)CCCN1c2ccccc2CCc2ccc(Cl)cc21 [CLOMIPRAMINE]
Return: 0

Enquiry: Give the reported GGT Increase - Index Value for this compound. CN(C)C(=N)N=C(N)N [METFORMIN]
Return: 0

Enquiry: Report measured GGT Increase - Index Value; entry is CC(=O)OCC(=O)[C@@]12OC3(CCCC3)O[C@@H]1C[C@H]1[C@@H]3CCC4=CC(=O)C=C[C@]4(C)[C@@]3(F)[C@@H](O)C[C@@]12C [AMCINONIDE]
Return: 0

Enquiry: Report measured GGT Increase - Index Value; entry is N=C(N)N/N=C/c1c(Cl)cccc1Cl [GUANABENZ]
Return: 0

Enquiry: State, in one line, measured GGT Increase - Index Value of CO/N=C(\C(=O)N[C@@H]1C(=O)N2C(C(=O)O)=C(COC(C)=O)CS[C@H]12)c1csc(N)n1 [CEFOTAXIME]
Return: 0

Enquiry: Supply GGT Increase - Index Value value. Item: NNC(=O)c1ccncc1 [ISONIAZID]
Return: 8

Enquiry: Please report GGT Increase - Index Value for the following compound: C#C[C@]1(O)CC[C@H]2[C@@H]3CCC4=CC(=O)CC[C@@H]4[C@H]3CC[C@@]21CC [LEVONORGESTREL]
Return: 34

Enquiry: Consider the compound CC[C@@]1(O)C(=O)OCc2c1cc1n(c2=O)Cc2cc3c(CN(C)C)c(O)ccc3nc2-1 [TOPOTECAN] and give its recorded GGT Increase - Index Value.
Return: 11.6

Enquiry: Dear colleague, please send me the reported GGT Increase - Index Value for FC(F)OC(Cl)C(F)(F)F (stereo not given) [ISOFLURANE] when you can.
Return: 0
